# t½ annotations
Molecular target: T1, hRET.mFc (human)
T1 construct: also called dimeric human RET
Assay: SPR Biacore T200, mAb capture, 25 C
Numbers only here, please. The scale is min.

binder	displayUnit	t½
H4H8087P (antibody, human IgG4, V domains shown, human IgG4 Fc (H4H prefix)) VH: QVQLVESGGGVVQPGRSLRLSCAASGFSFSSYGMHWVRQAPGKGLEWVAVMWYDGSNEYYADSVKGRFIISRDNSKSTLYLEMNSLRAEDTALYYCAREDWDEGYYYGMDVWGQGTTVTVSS VL: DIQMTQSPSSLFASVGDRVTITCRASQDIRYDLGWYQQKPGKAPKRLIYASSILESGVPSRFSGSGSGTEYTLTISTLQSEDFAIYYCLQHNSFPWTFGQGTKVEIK	min	108
H4H8060P (antibody, human IgG4, V domains shown, human IgG4 Fc (H4H prefix)) VH: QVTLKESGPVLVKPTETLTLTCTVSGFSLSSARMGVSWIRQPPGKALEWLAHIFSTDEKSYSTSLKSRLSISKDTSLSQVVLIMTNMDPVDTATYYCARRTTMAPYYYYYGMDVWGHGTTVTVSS VL: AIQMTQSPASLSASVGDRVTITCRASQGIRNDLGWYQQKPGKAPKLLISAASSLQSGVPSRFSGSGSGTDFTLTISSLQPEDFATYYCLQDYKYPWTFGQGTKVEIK	min	78
H4H8046P (antibody, human IgG4, V domains shown, human IgG4 Fc (H4H prefix)) VH: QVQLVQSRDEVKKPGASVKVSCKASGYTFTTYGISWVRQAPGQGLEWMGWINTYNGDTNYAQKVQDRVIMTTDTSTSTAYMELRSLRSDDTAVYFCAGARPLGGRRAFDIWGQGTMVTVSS VL: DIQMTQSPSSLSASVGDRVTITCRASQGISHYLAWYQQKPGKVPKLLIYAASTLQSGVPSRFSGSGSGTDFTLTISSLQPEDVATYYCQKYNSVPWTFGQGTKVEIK	min	64
H4H8066P (antibody, human IgG4, V domains shown, human IgG4 Fc (H4H prefix)) VH: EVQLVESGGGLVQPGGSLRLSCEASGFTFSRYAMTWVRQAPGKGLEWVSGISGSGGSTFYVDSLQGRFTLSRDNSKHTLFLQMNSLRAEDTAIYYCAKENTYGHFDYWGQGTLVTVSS VL: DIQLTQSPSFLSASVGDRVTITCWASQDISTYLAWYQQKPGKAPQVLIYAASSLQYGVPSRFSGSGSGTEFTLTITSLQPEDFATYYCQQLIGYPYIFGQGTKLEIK	min	96

Kindly note the recorded t½ for H4H8076P (antibody, human IgG4, V domains shown, human IgG4 Fc (H4H prefix)) VH: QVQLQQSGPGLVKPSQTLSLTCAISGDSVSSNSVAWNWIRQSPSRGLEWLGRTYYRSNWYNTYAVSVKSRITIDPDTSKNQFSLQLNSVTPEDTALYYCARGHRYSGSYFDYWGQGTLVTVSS VL: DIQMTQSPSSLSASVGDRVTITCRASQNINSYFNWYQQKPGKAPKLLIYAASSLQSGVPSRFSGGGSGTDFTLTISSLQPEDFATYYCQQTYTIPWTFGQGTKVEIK , which is 68
